Measured Target: PIM2 (Homo sapiens)
Sequence (Q9P1W9 whole entry): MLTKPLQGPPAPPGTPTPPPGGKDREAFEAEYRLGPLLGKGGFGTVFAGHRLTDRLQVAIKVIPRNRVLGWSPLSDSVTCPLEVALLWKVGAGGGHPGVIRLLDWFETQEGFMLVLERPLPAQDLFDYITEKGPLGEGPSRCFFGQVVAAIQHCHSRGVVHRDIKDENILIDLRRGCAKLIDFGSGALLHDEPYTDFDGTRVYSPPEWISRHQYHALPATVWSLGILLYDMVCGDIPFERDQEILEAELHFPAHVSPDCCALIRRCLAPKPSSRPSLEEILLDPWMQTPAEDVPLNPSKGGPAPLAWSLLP
Assay Protocol: Pim 2 AlphaScreen assay (high ATP)
Assay type: biochemical
Condition Set: read-out: Pim2 IC50
Measured Parameter: IC50 (µM)

| Compound | Numeric Value |
| --- | --- |
| CC(C)[C@H]1O[C@@H](c2ccncc2NC(=O)c2nc(-c3ccccc3)cnc2N)C[C@@H](N)[C@@H]1O | 0.0281 |

[I] Nc1ncc(-c2ccccc2)nc1C(=O)Nc1cnccc1[C@H]1C[C@@H](N)[C@H](O)[C@@H](C2CC2)O1
[II] N[C@@H]1C[C@H](c2ccncc2NC(=O)c2ccc(F)c(-c3c(F)cccc3F)n2)O[C@@H]2CCC(=O)N[C@@H]12
Task item: For the pair I and II , which entry has the numerically smaller recorded IC50? Mark your selection by writing its label.
Reply: I
(I: 0.0627 µM, II: 0.393 µM)

[1] Cc1cc(F)c(-c2nc(C(=O)Nc3cnccc3[C@H]3C[C@@H](N)[C@H](O)[C@@H](C(C)(C)C)O3)ccc2F)c(F)c1
[2] CC(C)[C@H]1O[C@@H](c2ccncc2NC(=O)c2nc(-c3c(F)cccc3F)ncc2N)C[C@@H](N)[C@@H]1O
[3] CC[C@H]1OC(c2ccncc2NC(=O)c2ccc(F)c(-c3c(F)cc(S(C)(=O)=O)cc3F)n2)C[C@@H](N)[C@]1(C)O (stereo in doubt)
[4] CC1(C)C[C@H](N)C[C@@H](c2ccncc2NC(=O)c2nc(-c3ccccc3)cnc2N)O1
Task item: Form: Sort by [IC50] Order [ ascending ] Order the labels as requested and list them.
Reply: 1, 2, 3, 4
(1: 0.0031 µM, 2: 0.0109 µM, 3: 0.0874 µM, 4: 0.514 µM)

[P] CC(C)[C@H]1O[C@@H](c2ccncc2NC(=O)c2ccnc(-n3c(F)cccc3=O)n2)C[C@@H](N)[C@@H]1O
[Q] CC[C@H]1O[C@@H](c2ccncc2NC(=O)c2ccc(F)c(-c3c(F)cc(C(C)(C)O)cc3F)n2)C[C@@H](N)[C@@H]1O
Task item: For the pair P and Q , which entry has the numerically smaller recorded IC50? Mark your selection by writing its label.
Reply: Q
(Q: 0.0039 µM, P: 6.94 µM)

###

Measured Target: PIM1 (Homo sapiens)
Sequence (P11309 whole entry): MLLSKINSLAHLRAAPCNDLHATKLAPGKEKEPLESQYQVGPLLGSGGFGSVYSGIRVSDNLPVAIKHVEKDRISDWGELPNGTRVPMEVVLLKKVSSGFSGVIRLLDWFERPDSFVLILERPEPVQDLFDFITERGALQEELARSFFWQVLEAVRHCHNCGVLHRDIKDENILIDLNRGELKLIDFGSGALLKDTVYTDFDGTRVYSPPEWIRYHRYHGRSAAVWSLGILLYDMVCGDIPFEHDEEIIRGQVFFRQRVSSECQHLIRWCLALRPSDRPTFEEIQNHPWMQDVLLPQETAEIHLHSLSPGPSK
Assay Protocol: Pim 1 AlphaScreen assay (high ATP)
Assay type: biochemical
Condition Set: read-out: Pim1 IC50
pIC50: −log10 of the molar value.
Measured Parameter: pIC50

[I] CC[C@@H]1O[C@H](c2ccncc2NC(=O)c2ccc(F)c(-c3c(F)cccc3F)n2)C[C@H](N)[C@@]1(C)O (stereo in doubt)
[II] CC(C)(C)[C@@H]1O[C@H](c2ccncc2NC(=O)c2ccc(F)c(-c3c(F)cccc3F)n2)C[C@H](N)[C@H]1O
Task item: API: POST /compare with I and II ; response names the item with higher pIC50. Mark your selection by writing its label.
Reply: I

###

Measured Target: GSK3β (Homo sapiens, UniProt P49841)
Sequence (P49841 whole entry, species assumed): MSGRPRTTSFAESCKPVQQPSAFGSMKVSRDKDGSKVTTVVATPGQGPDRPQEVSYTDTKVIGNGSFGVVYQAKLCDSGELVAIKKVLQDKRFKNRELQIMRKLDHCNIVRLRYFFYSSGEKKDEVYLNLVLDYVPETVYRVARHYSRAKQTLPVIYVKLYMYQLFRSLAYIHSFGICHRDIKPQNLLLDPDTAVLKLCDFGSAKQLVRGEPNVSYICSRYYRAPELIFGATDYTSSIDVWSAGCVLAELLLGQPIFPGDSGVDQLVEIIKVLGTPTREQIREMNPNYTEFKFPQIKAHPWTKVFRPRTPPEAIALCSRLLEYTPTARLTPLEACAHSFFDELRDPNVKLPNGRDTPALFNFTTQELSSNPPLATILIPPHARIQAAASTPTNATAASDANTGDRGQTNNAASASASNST
Assay Protocol: GSK3β ATP depletion assay
Assay type: biochemical
Condition Set: read-out: GSK3b IC50
Measured Parameter: IC50 (nM)

| Compound | Unit Text | IC50 |
| --- | --- | --- |
| CCC[C@H]1O[C@@H](c2ccncc2NC(=O)c2nc(-c3c(F)cccc3F)ncc2N)C[C@@H](O)[C@@H]1O [Example 169] | nM | 1660 |

[I] C[C@H]1[C@H](C)O[C@H](c2ccncc2NC(=O)c2ccc(F)c(-c3c(F)cccc3F)n2)C[C@@H]1O (stereo in doubt) [Example 96]
[II] O=C(Nc1cnccc1[C@@H]1C[C@H](O)[C@@H](O)[C@H](C2CC2)O1)c1cccc(-c2c(F)cccc2F)n1 [Example 206]
Task item: API: POST /compare with I and II ; response names the item with higher IC50. Mark your selection by writing its label.
Reply: II
